Test: NCI Yeast Anticancer Drug Screen. Data for the bub3 strain (AID 167)
Settings: S. cerevisiae bub3 mutant strain, at 50.0 µM, active compounds read high
The panel holds about 79,000 compounds, 15% with a hit somewhere; the sample as a whole holds those more often.
Entries and their growth inhibition
Observed Property: growth inhibition (%)

| Compound | Reading |
| --- | --- |
| CC(=O)Cc1ccc([N+](=O)[O-])cc1 | 4.15 |
| NC(N)=Nc1nc2ccccc2[nH]1 | 11.7 |
| CCCCC(C(=O)OCC)[N+](=O)[O-] (configuration not stated) | 2.35 |
| COc1ccc(-c2nc(N3CCCC3)no2)cc1 | 31.1 |
| COc1ccc2nc3c([N+](=O)[O-])ccc(NCCCN(C)C)c3c(NCCCN(C)C)c2c1 | -28.4 |
| O=C1OC(/C=C/c2ccccc2)=NC/1=C\C=C\c1ccccc1 | 6.15 |
| CC(=O)Nc1ccc(Br)cc1C | -2.4 |
| Clc1ccc2cc3ccccc3cc2c1 | 5.8 |
| CC(=O)NC1CC2c3ccccc3C1([N+](=O)[O-])c1ccccc12 (configuration not stated) | -4.6 |
| CCCCCCCCCCCCCCCCCCOC(=O)c1cccnc1 | 23.8 |
| N#C/C(=C1\OC(N)=C(c2ccc(Cl)cc2)C1=O)c1ccc(Cl)cc1 | 2.15 |
| CCOC(=O)c1cc(/C=C/C(C)=C/C(=O)OC)oc1C | 5.4 |

###

Assay: NCI Yeast Anticancer Drug Screen. Data for the bub3 strain (AID 167)
Details: S. cerevisiae bub3 mutant strain, at 50.0 µM, active compounds read high
Compounds without any hit were thinned out: in the full panel of roughly 79,000, 15% have a hit.
Item-by-item account of growth inhibition
Observed Property: growth inhibition (%)

| Compound | Reading |
| --- | --- |
| c1cc(-c2cn3c(n2)SCC3)ccn1 | 25.2 |
| Cc1cc(C)nc(Nc2nc3ccc([N+](=O)[O-])cc3[nH]2)n1 | -5.05 |
| CC(C)(C)OC(=O)NC(CCCCNC(=O)OCc1ccccc1)C(=O)NCCNc1ccc(NCCNC(=O)C(CCCCNC(=O)OCc2ccccc2)NC(=O)OC(C)(C)C)c2c1C(=O)c1ccccc1C2=O (centres undefined) | -31.6 |
| O=C(O)CO.[NH2-].[NH2-].[Pt+2] | -20.2 |
| CC(=O)OCC1OC(n2c(C)c(N=Nc3ccccc3)c(C)c(C#N)c2=S)C(OC(C)=O)C(OC(C)=O)C1OC(C)=O (centres undefined) | -10.3 |
| CCOc1ccc(NC=O)cc1 | 18.5 |
| CC(=O)N(C)C | -2.3 |
| Oc1ccccc1C1N=NC2=C(CCCC2)N1O (centres undefined) | 21.9 |
| O=C(c1ccc(F)cc1)C1CC1 | -0.95 |
| O=C(Nc1ccc2ccccc2c1)c1ccc(Cl)cc1 | 31.4 |
| CC1CCC2(OC1)OC1CC3C4CCC5CC(O)CCC5(C)C4C(=O)C(O)C3(C)C1C2C (centres undefined) | 14.5 |
| CSC(=Nc1ccc(Br)cc1)NC(=O)c1cc([N+](=O)[O-])cc([N+](=O)[O-])c1 | 6.2 |
| Cc1ccc(N=NN(C)C)cc1NC(=O)NCC(=O)OC(C)(C)C | 7.25 |
| Cc1cccc(-c2cc3cccnc3nc2NN=O)c1C | 67.1 |
| Cn1ncnc1CCc1ccccc1 | -14 |
| Oc1c(Cl)cc(Cl)cc1C=Nc1cc(C(F)(F)F)ccc1N1CCc2ccccc2C1 | 42.8 |
| N#C/C(=C\c1c2ccccc2c(Cl)c2ccccc12)C(N)=S | 15.4 |
| O=C1C2=C(Nc3cc([N+](=O)[O-])ccc3N2)OC1c1ccc2c(c1)OCO2 (centres undefined) | -28.2 |
| O=S1(=O)CCCC1C(O)c1ccccc1 (centres undefined) | 1.55 |
| O=C(Cc1n[nH]c(=S)nc1CC(=O)c1cccnc1)c1cccnc1 | 26.8 |
| CCn1c2ccccc2c2ccc(N=Cc3ccc4ccccc4c3)cc21 | 14.3 |
| O=[N+]([O-])c1ccc(Cc2ncnc3c2ncn3C2OC(CO)C(O)C2O)cc1 (centres undefined) | 2.15 |
| O=C1OCC(O)=C1C(c1ccc(Cl)cc1)c1cc2c(cc1O)OCO2 (centres undefined) | 0.05 |
| CCCCC(C)NC(=O)c1ccccc1 (centres undefined) | -3.8 |
| CCCC[P+](CCCC)(CCCC)c1ccccc1 | -8.95 |
| CC(=O)OCC1=COC(OC(=O)CC(C)(C)OC(C)=O)C2C1=CC(OC(=O)CC(C)C)[C@@]21CO1 (some centres undefined) | 6.75 |
| CSCNC(=O)Nc1ccccc1 | 15 |
| Nc1ccc(CCCCOc2ccccc2)cc1 | 99 |
| CCOC(=O)C(=O)C1CCCC1=O (centres undefined) | 1.7 |
| COC[C@@H](N=CN1CCc2cc(OC)c(OC)cc2C1)C(C)(C)C | -11.3 |
| ClC(Cl)C1OCCOCCO1 | -0.35 |
| COC(C(=O)CN(C)C)(c1ccccc1)c1ccccc1 | -26.8 |
| NC(=O)C1CCN(S(=O)(=O)c2ccccc2)CC1 | -1.5 |
| CC(C)(C)Nc1ccc([N+](=O)[O-])cc1[N+](=O)[O-] | 25.2 |
| CC(N)C(=O)NC(C(=O)NC1C(O)OC(CO)C(O)C1O)C(C)C (centres undefined) | 7.1 |
| CCCCC1CC(c2ccc(Cl)cc2)=NO1 (centres undefined) | 3.75 |
| CCCCCCCCC(C)C | 1.65 |
| CC(C)(C)C(=O)OCC1C(=O)OCC1C(=O)N1Cc2cc3ccccc3nc2C1 (centres undefined) | -8.2 |
| CC(=O)Oc1ccc(-c2ccccc2)cc1 | 18 |
| Brc1c2ccccc2cc2ccccc12 | 63.4 |
| CCCCCC(=O)OC[n+]1ccc2c(C)c3[nH]c4ccc(OC)cc4c3c(C)c2c1 | 87.1 |
| CC(C)Cn1cnc2c(SCc3ccccn3)nc(N)nc21 | -48.5 |
| CC/C=C/CC(=O)NCc1ccc(O)c(OC)c1 | -2.9 |
| C=CCCCCCCCCC(=O)Nc1cc2c3c(c1)CCCN3CCC2 | 10.6 |
| CC12CCC(=O)[C@@]1(C)CCCC2O (some centres undefined) | -26.8 |
| CN1C(=O)C(n2[nH]c(=O)n(-c3ccccc3)c2=O)C(=O)N(C)C1=O | 16.9 |
| CC(=O)C1CCCC(=O)/C=C/C(=O)O1 (centres undefined) | 11.5 |
| CCN(CC)CCn1c(C(C)(C)C)nc2ccccc21 | -15.8 |
| CCCCOC1OC[N+](C)(C)CC1(C)C (centres undefined) | -0.45 |

These measurements were taken from PubChem BioAssay (NCI).
